measurement notes: Plasma micafungin concentration monitoring by HPLC
Type: in vivo, human preterm neonate
setup conditions: human, iv; 8 mg/kg/day i.v. over one hour; third day of therapy; plasma; HPLC; heel puncture blood samples; one patient; read-out: Plasma micafungin concentration, 30 min before infusion (C min)
Starred links: 1 amine or outer side, 2 acyl side, 3 side chain; linkers in the order of their positions; H or OH if unused. Positions of bridges follow the written chain, without caps; N, C: chain ends. Non-standard residues stand in square brackets, D forms with d. Residues, ends and D or L forms follow the SMILES beside them. *: point of attachment. hTyr(3S-OH,4S-OH,3'-OSO3H) = N[C@H](C(=O)O)[C@H](O)[C@@H](O)c1ccc(O)c(OS(=O)(=O)O)c1; Orn(4R-OH,5R-OH) = O=C([C@H](C[C@@H](O)[C@@H](O)N[*:3])N[*:1])[*:2]; Pro(3S-OH,4S-Me) = C[C@H]1CN[C@H](C(=O)O)[C@H]1O; X1 = CCCCCOc1ccc(-c2cc(-c3ccc(C(=O)*)cc3)no2)cc1; Gln(3R-OH) = NC(=O)C[C@@H](O)[C@H](N)C(=O)O; Hyp = O=C(O)[C@@H]1C[C@@H](O)CN1
observable: level at -0.5 h (ng/mL)
Quick reminder: number only, in ng/mL, skip the unit.

Qu. If you can, please state the reported level at -0.5 h value of CCCCCOc1ccc(-c2cc(-c3ccc(C(=O)N[C@H]4C[C@@H](O)[C@@H](O)NC(=O)[C@@H]5[C@@H](O)[C@@H](C)CN5C(=O)[C@H]([C@H](O)CC(N)=O)NC(=O)[C@H]([C@H](O)[C@@H](O)c5ccc(O)c(OS(=O)(=O)O)c5)NC(=O)[C@@H]5C[C@@H](O)CN5C(=O)[C@H]([C@@H](C)O)NC4=O)cc3)no2)cc1 [micafungin] (X1-[Orn(4R-OH,5R-OH)]T[Hyp][hTyr(3S-OH,4S-OH,3'-OSO3H)][Gln(3R-OH)][Pro(3S-OH,4S-Me)]; lactam 1-C) .
Ans. 3730

---

measurement notes: Plasma micafungin concentration monitoring by HPLC
Type: in vivo, human preterm neonate
setup conditions: human, iv; 8 mg/kg/day i.v. over one hour; third day of therapy; plasma; HPLC; one patient; read-out: Plasma micafungin concentration, 8 h after infusion
Starred links: 1 amine or outer side, 2 acyl side, 3 side chain; linkers in the order of their positions; H or OH if unused. Positions of bridges follow the written chain, without caps; N, C: chain ends. Non-standard residues stand in square brackets, D forms with d. Residues, ends and D or L forms follow the SMILES beside them. *: point of attachment. hTyr(3S-OH,4S-OH,3'-OSO3H) = N[C@H](C(=O)O)[C@H](O)[C@@H](O)c1ccc(O)c(OS(=O)(=O)O)c1; Orn(4R-OH,5R-OH) = O=C([C@H](C[C@@H](O)[C@@H](O)N[*:3])N[*:1])[*:2]; Pro(3S-OH,4S-Me) = C[C@H]1CN[C@H](C(=O)O)[C@H]1O; X1 = CCCCCOc1ccc(-c2cc(-c3ccc(C(=O)*)cc3)no2)cc1; Gln(3R-OH) = NC(=O)C[C@@H](O)[C@H](N)C(=O)O; Hyp = O=C(O)[C@@H]1C[C@@H](O)CN1
observable: level at 8 h (ng/mL)
Quick reminder: number only, in ng/mL, skip the unit.

Qu. If you can, please state the reported level at 8 h value of CCCCCOc1ccc(-c2cc(-c3ccc(C(=O)N[C@H]4C[C@@H](O)[C@@H](O)NC(=O)[C@@H]5[C@@H](O)[C@@H](C)CN5C(=O)[C@H]([C@H](O)CC(N)=O)NC(=O)[C@H]([C@H](O)[C@@H](O)c5ccc(O)c(OS(=O)(=O)O)c5)NC(=O)[C@@H]5C[C@@H](O)CN5C(=O)[C@H]([C@@H](C)O)NC4=O)cc3)no2)cc1 [micafungin] (X1-[Orn(4R-OH,5R-OH)]T[Hyp][hTyr(3S-OH,4S-OH,3'-OSO3H)][Gln(3R-OH)][Pro(3S-OH,4S-Me)]; lactam 1-C) .
Ans. 7900
